Every entry's value here was drawn from ChEMBL document CHEMBL1122220.

- Species on record: Rattus norvegicus
- test protocol: Minimum effective dose (MED) perorally in passive cutaneous anaphylaxis (PCA) model for 50% inhibition in Sprague-Dawley rat
- Assay type: functional
- measurement parameters: po, read-out: MED
Below, each of the compounds is paired with its reported minimal effective dose value.

Worked examples, 2 compounds total:
INPUT: Sample O=c1cc(-c2nn[nH]n2)nc2oc3ccccc3n12 — what was its minimal effective dose?
OUTPUT: > 10 mg/kg

INPUT: Sample Cn1c2ccccc2n2c(=O)c(C(=O)O)cnc12 — what was its minimal effective dose?
OUTPUT: > 10 mg/kg

Kindly review the next compound as well.
INPUT: Sample Cn1c2ccccc2n2c(=O)c(C(=O)Nc3nn[nH]n3)cnc12 — what was its minimal effective dose?
OUTPUT: > 10 mg/kg

====

Below, each of the molecules is paired with its reported minimal effective dose value.
- Test system: Rattus norvegicus
- test protocol: Minimum effective dose (MED) intraperitoneally in passive cutaneous anaphylaxis (PCA) model for 50% inhibition in Sprague-Dawley rat
- Format: functional
- measurement parameters: ip, read-out: MED

INPUT: Sample Cn1c2ccccc2n2c(=O)cc(C(=O)O)nc12 — what was its minimal effective dose?
OUTPUT: > 5 mg/kg

Next:
INPUT: Sample O=C(O)c1cc(=O)n2c(n1)sc1ccccc12 — what was its minimal effective dose?
OUTPUT: > 5 mg/kg

INPUT: Sample O=C(O)c1cnc2oc3ccccc3n2c1=O — what was its minimal effective dose?
OUTPUT: > 5 mg/kg
